Origin of values: patent US20160122421A1

target_desc: eTau 4 (FIG. 17)
test_summary: relative binding affinity, method not named (Table 4); fifth column, headed eTau 4
Each entry below lists one item and its recorded pKd value.
Field pKd (float): negative decimal logarithm of the concentration in molar.

Sample records with pKd:
*Q* Find the recorded pKd belonging to VH3/Vk1 (antibody, V domains shown, member of the group m7; also called humanized IPN002 variant VH3/Vk1) VH: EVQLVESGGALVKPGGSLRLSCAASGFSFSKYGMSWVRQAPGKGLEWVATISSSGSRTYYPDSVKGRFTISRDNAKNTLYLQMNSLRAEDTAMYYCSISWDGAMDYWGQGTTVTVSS VL: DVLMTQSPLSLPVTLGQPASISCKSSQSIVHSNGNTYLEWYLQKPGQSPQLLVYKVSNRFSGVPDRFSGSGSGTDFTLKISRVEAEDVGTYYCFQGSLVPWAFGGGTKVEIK and report it.
*A* 9.34

*Q* Fill blank: measured pKd of the binder humanized IPN002 variant VH2/Vk3 (antibody, V domains shown) VH: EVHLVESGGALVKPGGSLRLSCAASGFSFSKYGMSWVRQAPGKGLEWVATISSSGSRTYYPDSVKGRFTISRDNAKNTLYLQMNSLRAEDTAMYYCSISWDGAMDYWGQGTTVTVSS VL: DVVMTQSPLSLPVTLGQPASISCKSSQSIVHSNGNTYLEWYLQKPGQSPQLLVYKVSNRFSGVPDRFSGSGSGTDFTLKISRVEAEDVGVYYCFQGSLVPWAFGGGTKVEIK is ____.
*A* 9.66

Others:
*Q* Sample VH4/Vk3 (antibody, V domains shown, member of the group m7; also called humanized IPN002 variant VH4/Vk3) VH: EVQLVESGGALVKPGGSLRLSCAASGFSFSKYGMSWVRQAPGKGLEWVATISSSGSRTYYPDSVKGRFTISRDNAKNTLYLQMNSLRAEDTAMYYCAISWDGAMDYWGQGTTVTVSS VL: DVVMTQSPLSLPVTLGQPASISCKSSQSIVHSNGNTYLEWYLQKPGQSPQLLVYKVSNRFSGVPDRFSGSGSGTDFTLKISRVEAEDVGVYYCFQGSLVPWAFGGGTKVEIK — what was its pKd?
*A* 9.20
